- System Name: P2X3 (Homo sapiens)
- Sequence (P56373 whole entry): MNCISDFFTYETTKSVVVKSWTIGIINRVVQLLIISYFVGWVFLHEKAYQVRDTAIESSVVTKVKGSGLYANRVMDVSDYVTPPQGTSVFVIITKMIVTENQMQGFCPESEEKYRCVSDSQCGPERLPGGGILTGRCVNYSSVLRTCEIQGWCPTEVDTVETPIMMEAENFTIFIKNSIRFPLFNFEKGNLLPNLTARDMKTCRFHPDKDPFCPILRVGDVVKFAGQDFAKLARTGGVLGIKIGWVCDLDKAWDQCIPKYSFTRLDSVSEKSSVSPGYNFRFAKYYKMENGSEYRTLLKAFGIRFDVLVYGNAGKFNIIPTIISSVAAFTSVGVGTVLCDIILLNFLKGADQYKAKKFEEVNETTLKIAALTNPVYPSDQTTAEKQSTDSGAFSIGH
- Assay Comment: Calcium uptake assay (P2X antagonist assay, inhibition of agonist-induced calcium influx), P2X3
- Condition Parameters: inhibition of agonist-induced calcium influx in cells expressing the receptor
Measured log10(IC50) values are reported for all entries that follow.
Annotation: log10 of IC50, nM basis.

Molecule: Cc1ccc(N2CCc3ncnc(NCc4ccc5nccnc5c4)c3C2)c(C#N)c1 [Compound 79]
System Name: P2X3 (Homo sapiens)
log10(IC50): 1.53

Molecule: N#Cc1cc(Cl)ccc1N1CCc2ncnc(NCc3ccc4nccnc4c3)c2C1 [Compound 84]
System Name: P2X3 (Homo sapiens)
log10(IC50): 2.10

Molecule: Cc1ccc(N2CCc3ncnc(NCc4ccc(C5CC5)cn4)c3C2)c(C#N)c1 [Compound 30]
System Name: P2X3 (Homo sapiens)
log10(IC50): 2.37

// query Field request: log10(IC50) | item: CN(C)c1ccc(CNc2ncnc3c2CN(c2ccc(Cl)cc2C#N)CC3)cn1 [Compound 12]
// result 2.80
